- tested system: T1, His9-hMSR1 (human MSR1 extracellular domain) (Homo sapiens, UniProt P21757)
- T1 construct: human MSR1 extracellular domain expressed with a N-terminal nonahistidine tag; purchased R&D Systems 2708-MS
- T1 sequence (P21757 77-451 limits assumed): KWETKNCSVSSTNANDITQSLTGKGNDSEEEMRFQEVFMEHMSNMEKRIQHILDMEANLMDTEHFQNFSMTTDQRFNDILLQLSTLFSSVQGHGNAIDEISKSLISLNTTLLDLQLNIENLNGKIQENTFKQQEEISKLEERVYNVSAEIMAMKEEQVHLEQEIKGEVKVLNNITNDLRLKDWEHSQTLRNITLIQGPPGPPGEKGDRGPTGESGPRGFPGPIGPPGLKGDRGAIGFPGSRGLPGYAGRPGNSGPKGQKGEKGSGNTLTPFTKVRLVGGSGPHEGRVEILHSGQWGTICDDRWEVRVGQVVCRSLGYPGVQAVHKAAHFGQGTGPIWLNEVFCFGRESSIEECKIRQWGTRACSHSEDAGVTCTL
- protocol details: Biacore surface plasmon resonance binding kinetics
- test settings: 25° C.; calculated from the kinetic rates; read-out: KD (Molar)
assay endpoint: pKd
Quick note: pKd means taking -log10 of the concentration in moles per liter.

Reference set (2 entries):
H1H27734P-N297Q (antibody, V domains shown) VH: EVQLVESRGGLVQPGGSLRLSCAASGFTFSSYAMSWVRQAPGKGLEWVSAISGSGGSTFYADSVKGRFTISRDNSKNTVYLQMNSLRAEDTAVYYCAKALVLRFLEWLGDYWGQGTLVTVSS VL: DIQMTQSPSTLSASVGDRVTITCRASQSISSWLAWFQQKPGKAPKLLIYKASSLESGVPSRFSGSGSGTEFTLTISSLQPDDFATYYCQQYKSYWTFGQGTKVEIKR :: 8.11
H1H21234N-N297Q (antibody, V domains shown) VH: QVQLQESGPGLVKPSETLSLTCTVTGGSISRNYWSWIRQPPGKGLEWIGYIYYSGSIDYNPSLKSRVTISVDTSKNQFSLKLSSMTAADTAVYYCARDRWNWKYGMDVWGQGTTVIVSS VL: EIVLTQSPGTLSLSPGERATLSCRASQTVRNNYLAWYHQKPGQAPRLLIYGASSRATGIPDRFSGSGSGTDFTLTISRLEPEDFTVYYCHQYGNSPWTFGQGTKMEIKR :: 10.34

Attention now turns to another entry.
Name the reported pKd value associated with the molecule H1H27731P-N297Q (antibody, V domains shown) VH: QLQLQESGPGLVKPSETLSLTCTVSGGSISRISYYWGWIRQPPGKGLEWIGSIYDSGSTYYNPSLKSRVTISIDTSKNQFSLKLSSVTAADTAVYYCVRYSSSSAFAFDYWGQGTLVTVSS VL: DIQMTQSPSSVSASVGDRVTITCRASQGISSWLAWYQQKPGKAPKLLIYAASSLQSGVPSRFSGSGSGTDFTLTISSLQPEDFATYYCQQANSFPFTFGPGTKVDIKR
10.07
